meta.source: ChEMBL document CHEMBL1240295

Molecular target: Mitogen-activated protein kinase 11 (Homo sapiens) (UniProt Q15759)
Sequence (Q15759 whole entry): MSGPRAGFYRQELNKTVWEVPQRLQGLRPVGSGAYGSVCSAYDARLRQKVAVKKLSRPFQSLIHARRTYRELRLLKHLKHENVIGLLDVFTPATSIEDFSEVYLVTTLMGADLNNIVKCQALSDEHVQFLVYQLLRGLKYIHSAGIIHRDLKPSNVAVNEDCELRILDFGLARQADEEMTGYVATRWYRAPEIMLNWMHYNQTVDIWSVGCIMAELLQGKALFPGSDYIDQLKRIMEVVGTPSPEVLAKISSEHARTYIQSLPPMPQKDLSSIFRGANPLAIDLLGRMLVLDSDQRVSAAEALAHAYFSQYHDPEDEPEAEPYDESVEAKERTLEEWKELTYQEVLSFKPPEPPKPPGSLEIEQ
Test: Inhibition of His-tagged human SAPK2b/p38b2 expressed in Escherichia coli at 1 uM; values are per cent of control
quantity: residual activity

As a guide, the following entries are already answered.
[[record]]
compound = "CN1C(=O)C(c2c[nH]c3ccccc23)=C(c2c[nH]c3ccccc23)C1=O"
result = "104%"

[[record]]
compound = "CO[C@H]1C[C@@H]2CC[C@@H](C)[C@@](O)(O2)C(=O)C(=O)N2CCCC[C@H]2C(=O)O[C@H]([C@H](C)C[C@@H]2CC[C@@H](O)[C@H](OC)C2)CC(=O)[C@H](C)/C=C(\\C)[C@@H](O)[C@@H](OC)C(=O)[C@H](C)C[C@H](C)/C=C/C=C/C=C/1C"
result = "88%"

[[record]]
compound = "COC[C@H]1OC(=O)c2coc3c2[C@@]1(C)C1=C(C3=O)[C@@H]2CCC(=O)[C@@]2(C)C[C@H]1OC(C)=O [WORTMANNIN]"
result = "74%"


// query residual activity value for entry `O=C1NC(=O)C(c2c[nH]c3ccccc23)=C1c1c[nH]c2ccccc12` 88%

Please report the recorded residual activity for `NCCCn1cc(C2=C(c3c[nH]c4ccccc34)C(=O)NC2=O)c2ccccc21` . 115%

// residual activity lookup, key: `Cn1c2ccccc2c2c3c(c4c5ccccc5n(CCC#N)c4c21)CNC3=O` 81%

Which residual activity value belongs to `CN(C)CCCn1cc(C2=C(c3c[nH]c4ccccc34)C(=O)NC2=O)c2ccccc21` ? 92%

Name the recorded residual activity for Cn1cc(C2=C(c3cn(CCCSC(=N)N)c4ccccc34)C(=O)NC2=O)c2ccccc21 [BISINDOLYLMALEIMIDE IX] . 97%

# lookup: residual activity of `Cn1cc(C2=C(c3cn(CCCN)c4ccccc34)C(=O)NC2=O)c2ccccc21` 104%

What measured residual activity goes with Cn1cc(C2=C(c3c4n(c5ccccc35)CCC(CN)C4)C(=O)NC2=O)c2ccccc21 (stereo not given) ? 102%

---

Molecular target: Mitogen-activated protein kinase 14 (Homo sapiens) (UniProt Q16539)
Sequence (Q16539 whole entry): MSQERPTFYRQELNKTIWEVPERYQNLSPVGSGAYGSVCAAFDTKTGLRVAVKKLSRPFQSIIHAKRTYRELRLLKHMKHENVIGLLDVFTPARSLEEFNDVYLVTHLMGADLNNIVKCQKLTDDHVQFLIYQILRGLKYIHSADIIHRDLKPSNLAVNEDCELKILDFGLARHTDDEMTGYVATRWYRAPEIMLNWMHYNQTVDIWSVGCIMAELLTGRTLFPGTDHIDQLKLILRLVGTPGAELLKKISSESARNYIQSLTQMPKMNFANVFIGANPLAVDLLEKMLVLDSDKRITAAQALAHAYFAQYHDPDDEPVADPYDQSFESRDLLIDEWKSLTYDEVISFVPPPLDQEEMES
Assay: Inhibition of His-tagged human SAPK2a/p38 expressed in Escherichia coli at 1 uM; values are per cent of control
quantity: residual activity
Answers without a unit are incomplete; give the number and then its unit.

Example entries begin here.
[[record]]
compound = "Cn1cc(C2=C(c3cn(CCCN)c4ccccc34)C(=O)NC2=O)c2ccccc21"
quantity = "residual activity"
result = "115%"

[[record]]
compound = "NCCCn1cc(C2=C(c3c[nH]c4ccccc34)C(=O)NC2=O)c2ccccc21"
quantity = "residual activity"
result = "104%"

[[record]]
compound = "CO[C@H]1C[C@@H]2CC[C@@H](C)[C@@](O)(O2)C(=O)C(=O)N2CCCC[C@H]2C(=O)O[C@H]([C@H](C)C[C@@H]2CC[C@@H](O)[C@H](OC)C2)CC(=O)[C@H](C)/C=C(\\C)[C@@H](O)[C@@H](OC)C(=O)[C@H](C)C[C@H](C)/C=C/C=C/C=C/1C"
quantity = "residual activity"
result = "93%"

[[record]]
compound = "Cn1cc(C2=C(c3c4n(c5ccccc35)CCC(CN)C4)C(=O)NC2=O)c2ccccc21 (stereo not given)"
quantity = "residual activity"
result = "117%"

[[record]]
compound = "Cn1cc(C2=C(c3cn(CCCSC(=N)N)c4ccccc34)C(=O)NC2=O)c2ccccc21 [BISINDOLYLMALEIMIDE IX]"
quantity = "residual activity"
result = "84%"


# next compound below
# residual activity lookup, item `O=C1NC(=O)C(c2c[nH]c3ccccc23)=C1c1c[nH]c2ccccc12` 90%
